Reference for the values: patent US9732093B2

Items are presented alongside their recorded Ki.
Target: human FLAP (Homo sapiens (Human))
Sequence (P20292 whole entry): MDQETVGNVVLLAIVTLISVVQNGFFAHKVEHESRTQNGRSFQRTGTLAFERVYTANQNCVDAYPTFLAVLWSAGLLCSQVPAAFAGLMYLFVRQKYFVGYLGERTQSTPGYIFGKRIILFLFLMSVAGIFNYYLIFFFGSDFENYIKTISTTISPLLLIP
Test: FLAP binding assay (HTRF format)
Conditions: human FLAP wild type membranes, HTRF format; Table 6 (additional runs)
Where a name gives a salt, the structure may show the parent alone.
I only need the number, in µM, no unit after it.

A selection of reference data follows.
Enter reported Ki observed with human FLAP (Homo sapiens (Human)) for Nc1cnc(-c2ccc(C3CCC3)c(OCC3CCCCC3)c2F)cn1 [Example 71]
0.421

Can you check N#Cc1cccnc1COc1c(C2CCC2)ccc(-c2cnc(N)cn2)c1F [Example 286, trifluoroacetic acid salt] next?
0.0817

Can you check Nc1ncc(-c2ccc(C3CCCCC3)c(Oc3ncccn3)c2F)cn1 [Example 343] next?
0.0054

More entries:
Enter reported Ki observed with human FLAP (Homo sapiens (Human)) for Nc1cnc(-c2ccc(C3CCC3)c(Oc3ccc(N)nn3)c2F)cn1 [Example 338]
0.0017

Can you check Nc1cnc(-c2ccc(C3CCC3)c(Oc3cncc(N)n3)c2F)cn1 [Example 348] next?
0.0131

Can you check N#Cc1ncccc1Oc1c(C2CCC2)ccc(-c2cnc(N)cn2)c1F [Example 112] next?
0.0136

* * *

Target: human FLAP (Homo sapiens (Human))
Test: FLAP binding assay (HTRF format)
Conditions: human FLAP wild type membranes, HTRF format; Table 6 (additional runs)
Property Label: Ki (µM)
I only need the number, in µM, no unit after it.

A selection of reference data follows.
Enter reported Ki observed with human FLAP (Homo sapiens (Human)) for `Nc1cnc(-c2ccc(C3CCC3)c(OCc3ccc(-c4ccc(C(F)(F)F)cc4)cc3)c2F)cn1`
0.0081

Can you check `Cc1ccnc(Oc2c(C3CCC3)ccc(-c3cnc(N)cn3)c2F)n1` next?
0.014

Can you check `Cc1nc(COc2c(C3CCC3)ccc(-c3cnc(N)cn3)c2F)no1` next?
0.0342

Can you check `CSc1ccnc(Oc2c(C3CCC3)ccc(-c3cnc(N)cn3)c2F)n1` next?
0.0035

More entries:
Enter reported Ki observed with human FLAP (Homo sapiens (Human)) for `Nc1cnc(-c2ccc(C3CCC3)c(OCC3CCC3)c2F)cn1`
0.208

Can you check `CS(=O)(=O)N1CCC(COc2c(C3CCC3)ccc(-c3cnc(N)cn3)c2F)CC1` next?
0.136

Can you check `Nc1cnc(-c2ccc(C3CCC3)c(Oc3ccc(C(F)(F)F)nn3)c2F)cn1` next?
0.0123

Can you check `Nc1cnc(-c2ccc(Cl)c(OCc3ccccc3)c2F)cn1` next?
0.714

Can you check `Nc1cnc(-c2ccc(C3CCC3)c(Oc3ccnc(N)c3)c2F)cn1` next?
0.0476

Can you check `Cc1cc(C)nc(Oc2c(C3CCC3)ccc(-c3cnc(N)cn3)c2F)n1` next?
0.0053

* * *

Tested on: leukotriene pathway in human whole blood
Test: Human whole blood assay (LTB4 levels after A23187 stimulation)
Format: cell-based
Settings: Homo sapiens; blood diluted 1:1 in RPMI, 15 min pre-incubation, A23187 7 μg/mL for 30 min at 37° Celsius, plasma LTB4
Experimental: The ability of the compounds of the present invention to treat a FLAP-mediated disease and/or disorder, or associated symptoms or complications thereof, was determined using the following procedures. Binding assay data represent the average value obtained from two different assay plates, with samples run in duplicate on each plate. Human whole blood assay data represent a single replicate on an assay plate using whole blood from at least one healthy donor. […]
Items are presented alongside their recorded pIC50.
Bear in mind: pIC50 is minus log10 of a mol/L concentration; give just that figure.

Entry CC(C)(C)c1ccc(-c2cnc(N)nc2)c(F)c1O [Intermediate H] has what pIC50?
6.54

Can you check Nc1ncc(-c2ccc(C3CCC3)c(O)c2F)cn1 [Intermediate E] next?
5.96

# input for lookup
Entry CC(C)(C)c1ccc(-c2cnc(N)cn2)c(F)c1O [Intermediate G] has what pIC50?
6.24
